# target_desc: human RXFP1 (Homo sapiens, UniProt Q9HBX9)
# Construct: expressed in transfected cells
# Sequence (Q9HBX9 whole entry): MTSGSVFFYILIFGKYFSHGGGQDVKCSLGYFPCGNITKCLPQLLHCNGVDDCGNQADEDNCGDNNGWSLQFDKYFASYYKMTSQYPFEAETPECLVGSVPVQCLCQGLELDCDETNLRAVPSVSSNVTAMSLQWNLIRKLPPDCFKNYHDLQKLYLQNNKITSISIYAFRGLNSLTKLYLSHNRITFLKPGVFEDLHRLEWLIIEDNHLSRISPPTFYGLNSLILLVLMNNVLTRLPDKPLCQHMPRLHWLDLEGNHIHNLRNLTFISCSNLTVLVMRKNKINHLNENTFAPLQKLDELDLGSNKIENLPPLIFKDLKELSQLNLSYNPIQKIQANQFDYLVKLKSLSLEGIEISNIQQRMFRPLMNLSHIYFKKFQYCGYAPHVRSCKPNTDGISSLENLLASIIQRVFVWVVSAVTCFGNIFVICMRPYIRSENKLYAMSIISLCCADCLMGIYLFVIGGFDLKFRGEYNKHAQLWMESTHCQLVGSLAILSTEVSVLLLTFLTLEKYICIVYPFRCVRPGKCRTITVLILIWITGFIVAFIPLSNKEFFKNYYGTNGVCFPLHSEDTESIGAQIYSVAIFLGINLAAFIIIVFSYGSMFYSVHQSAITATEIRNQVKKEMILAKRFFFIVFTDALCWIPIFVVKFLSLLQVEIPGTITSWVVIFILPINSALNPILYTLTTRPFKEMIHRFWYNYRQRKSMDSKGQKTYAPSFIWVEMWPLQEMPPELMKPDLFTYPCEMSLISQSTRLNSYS
# test_description: hRXFP1 HEK293 cAMP assay (HTRF)
# Type: cell-based
# run_parameters: HEK293 cells stably expressing human RXFP1, 30 min at room temperature
endpoint_label: EC50 (nM)

* COc1ccc(/C=C/C(=O)N2CC[C@@H](O)C2)cc1C(=O)N[C@@H]1C2CCC(/C2=C/C(F)(F)F)[C@@H]1C(=O)Nc1ccc(F)c(C(F)(F)F)c1 (stereo partly drawn) | 111
* COc1ccc(C(=O)N2CCC(S(C)(=O)=O)C2)cc1C(=O)N[C@H]1[C@@H](C(=O)Nc2ccc(F)c(C(F)(F)F)c2)[C@H]2CC[C@@H]1/C2=C\C1CC1 (stereo partly drawn) [Example 256] | 12.6
* COc1c(F)cc(C(=O)NCC2(S(C)(=O)=O)CC2)cc1C(=O)N[C@H]1[C@@H](C(=O)N[C@H](C)C2(C)CC2)[C@H]2CC[C@@H]1/C2=C\C1CC1 | 3
